Target: T1, human VEGF165 (human, UniProt P15692)
T1 chain: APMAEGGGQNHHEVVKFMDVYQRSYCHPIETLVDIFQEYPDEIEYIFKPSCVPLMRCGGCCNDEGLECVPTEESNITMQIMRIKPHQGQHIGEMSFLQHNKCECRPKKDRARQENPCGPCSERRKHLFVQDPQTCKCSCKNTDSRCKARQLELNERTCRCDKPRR
Test: SPR, pH 7.4
MEASURED_PARAMETER: pKd
pKd is a log-scale quantity: -log10 of the concentration expressed in molar.

Use these answered entries as a reference point.
BINDER | MEASURED_PARAMETER | REPORTED_RESULT
509-max (antibody, V domains shown) VH: EVQLVESGGGLVQPGGSLRLSCTASGFSLSSYYMCWVRQAPGKGLEWVGCLDYVGDTDYASWAKGRFTISKDASKNTVYLQMNSLRAEDTAVYYCARTDDSRGWGLNIWGQGTLVTVSS VL: EIVMTQSPSTLSASVGDRVIITCQASQNIRIWLSWYQQKPGKAPKLLIYKASTLESGVPSRFSGSGSGTEFTLTISSLQPDDFATYYCQNNAHYSTNGGTFGQGTKLTVLG | pKd | 9.42
435-min (antibody, V domains shown) VH: EVQLVESGGGLVQPGGSLRLSCAASGFSLNTNYWMCWVRQAPGKGLEWVSCMYTGSYNRAYYASWAKGRFTISRDNSKNTLYLQMNSLRAEDTAVYYCAKGSNWYSDLWGQGTLVTVSS VL: EIVMTQSPSTLSASVGDRVIITCQASQSIGSSLAWYQQKPGKAPKLLIYTAANLASGVPSRFSGSGSGAEFTLTISSLQPDDFATYYCQNFATSDTVTFGQGTKLTVLG | pKd | 7.54

Field pKd (entry 578-max (antibody, V domains shown) VH: EVQLVESGGGLVQPGGSLRLSCTASGFSLTDYYYMTWVRQAPGKGLEWVGFIDPDDDPYYATWAKGRFTISRDTSKNTVYLQMNSLRAEDTAVYYCAGGDHNSGWGLDIWGQGTLVTVSS VL: EIVMTQSPSTLSASVGDRVIITCQASEIIHSWLAWYQQKPGKAPKLLIYLASTLASGVPSRFSGSGSGTQFTLTISSLQPDDFATYYCQNVYLASTNGANFGQGTKLTVLG ) reads 10.63
